- System: DoTc2-4510 (Cervical Carcinoma);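 note: after 72 h of two-drug dosing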
- protocol: Bliss excess, mean over the matrix (fraction); higher = more synergy
Each entry below carries its reported Bliss excess.
Give a plain numeric answer without units written out.

molecule	Bliss excess
Cc1c2c(nn1C)CSCc1cc(n(C)n1)CSc1cc(c3ccccc3c1)OCCCc1c(C(=O)O)n(C)c3c-2c(Cl)ccc13 [AZD5991] + CC(=O)O[C@H]1C(=O)[C@@]2(C)[C@H]([C@H](OC(=O)c3ccccc3)[C@]3(O)C[C@H](OC(=O)[C@H](O)[C@@H](NC(=O)c4ccccc4)c4ccccc4)C(C)=C1C3(C)C)[C@]1(OC(C)=O)CO[C@@H]1C[C@@H]2O [Paclitaxel] (first compound max 1 µM, 7x7, partner max 3 µM)	-0.0508

Query: # input molecule: Cc1c2c(nn1C)CSCc1cc(n(C)n1)CSc1cc(c3ccccc3c1)OCCCc1c(C(=O)O)n(C)c3c-2c(Cl)ccc13 [AZD5991] + C[C@@H](Nc1cc(F)cc(F)c1)c1cc(C(=O)N(C)C)cc2c(=O)cc(N3CCOCC3)oc12 [AZD8186] (first compound max 1 µM, 7x7, partner max 3 µM) ; wanted: its Bliss excess
Reply: 0.0486

---

- Tested on: NB10 (Neuroblastoma)
- protocol: combination Emax (second highest fraction inhibited in the dose matrix, 72 h); higher = more inhibition; extreme values may be limits of the assay
Each entry below carries its reported combination Emax.
Give a plain numeric answer without units written out.

Solved entries:
molecule	targetEntity	measure	measuredNumber
CN(CCO)CC[C@H](CSc1ccccc1)Nc1ccc(S(=O)(=O)NC(=O)c2ccc(N3CCC([C@@H](O)c4ccccc4-c4ccc(Cl)cc4)CC3)cc2)cc1S(=O)(=O)C(F)(F)F [AZD4320] + Cn1cnc2c(F)c(Nc3ccc(Br)cc3Cl)c(C(=O)NOCCO)cc21 [Selumetinib] (first compound max 1 µM, 7x7, partner max 3 µM)	NB10 (Neuroblastoma)	combination Emax	0.887
CS(=O)(=O)CCNCc1ccc(-c2ccc3ncnc(Nc4ccc(OCc5cccc(F)c5)c(Cl)c4)c3c2)o1 [Lapatinib] + Cn1cnc2c(F)c(Nc3ccc(Br)cc3Cl)c(C(=O)NOCCO)cc21 [Selumetinib] (first compound max 10 µM, 7x7, partner max 10 µM)	NB10 (Neuroblastoma)	combination Emax	0.481
CN(C)CCCOc1ccc(-c2ccc3ncc4c(c3c2)n(C2CCOCC2)c(=O)n4C)cn1 [AZD0156] + C=CCn1c(=O)c2cnc(Nc3ccc(N4CCN(C)CC4)cc3)nc2n1-c1cccc(C(C)(C)O)n1 [AZD1775] (first compound max 1 µM, partner max 1 µM)	NB10 (Neuroblastoma)	combination Emax	0.586
Cc1cc2ncnn2cc1Nc1ncc2c(n1)n(C1CCOCC1)c(=O)n2C [AZD7648] + C[C@@H]1COCCN1C2=NC(=NC(=C2)C3(CC3)[S@](=N)(=O)C)C4=C5C=CNC5=NC=C4 [AZD6738] (first compound max 10 µM, 7x7, partner max 10 µM)	NB10 (Neuroblastoma)	combination Emax	0.801
CC(=O)c1c(C)c2cnc(Nc3ccc(N4CCNCC4)cn3)nc2n(C2CCCC2)c1=O [Palbociclib] + CC1(C)CCC(CN2CCN(c3ccc(C(=O)NS(=O)(=O)c4ccc(NCC5CCOCC5)c([N+](=O)[O-])c4)c(Oc4cnc5[nH]ccc5c4)c3)CC2)=C(c2ccc(Cl)cc2)C1 [Venetoclax] (first compound max 10 µM, 7x7, partner max 1 µM)	NB10 (Neuroblastoma)	combination Emax	0.293

Query: # input molecule: O=C(c1cc(Cc2n[nH]c(=O)c3ccccc23)ccc1F)N1CCN(C(=O)C2CC2)CC1 [Olaparib] + CC1(C)CCC(CN2CCN(c3ccc(C(=O)NS(=O)(=O)c4ccc(NCC5CCOCC5)c([N+](=O)[O-])c4)c(Oc4cnc5[nH]ccc5c4)c3)CC2)=C(c2ccc(Cl)cc2)C1 [Venetoclax] (first compound max 10 µM, 7x7, partner max 1 µM) ; wanted: its combination Emax
Reply: 0.348

Query: # input molecule: O=C(c1cc(Cc2n[nH]c(=O)c3ccccc23)ccc1F)N1CCN(C(=O)C2CC2)CC1 [Olaparib] + COc1nnc2ccc(N3CCC(c4ccc(OCCN5CCN(C)C(=O)[C@H]5C)cc4)CC3)nn12 [AZD5153] (first compound max 10 µM, 7x7, partner max 1 µM) ; wanted: its combination Emax
Reply: 0.406

Taken from the supplement of paper PMC11061612.
